Test system: RPMI-8226 leukemia
Experiment: NCI tumour cell line growth inhibition, 48 h; in the data active means GI50 below about 0.43 µM; inactive means the rest
Output constraint: value belongs to active, inactive

Recorded test outcome, item Cn1ccc2c3c(Oc4ccc(NC(N)=O)cc4)ccnc3ccc21
inactive

Recorded test outcome, item COc1ccc2nc3cc(Cl)ccc3c(NCCNCC(C)O)c2c1 (stereo not drawn)
inactive

Recorded test outcome, item COc1ccc(/C=N/NC(=O)c2cccc3cc[nH]c23)cc1O
inactive

Recorded test outcome, item Cc1nnc(NC(=O)c2nc(S(=O)(=O)Cc3ccc(F)cc3)ncc2Cl)s1
inactive

Recorded test outcome, item CCCOc1cc2ccccc2cc1C(=O)Nc1nc(N)c2c(ccc3nccc32)[nH]1
active
